# Tested target: hERG potassium channel (Homo sapiens, UniProt Q12809)
# Sequence (Q12809 whole entry): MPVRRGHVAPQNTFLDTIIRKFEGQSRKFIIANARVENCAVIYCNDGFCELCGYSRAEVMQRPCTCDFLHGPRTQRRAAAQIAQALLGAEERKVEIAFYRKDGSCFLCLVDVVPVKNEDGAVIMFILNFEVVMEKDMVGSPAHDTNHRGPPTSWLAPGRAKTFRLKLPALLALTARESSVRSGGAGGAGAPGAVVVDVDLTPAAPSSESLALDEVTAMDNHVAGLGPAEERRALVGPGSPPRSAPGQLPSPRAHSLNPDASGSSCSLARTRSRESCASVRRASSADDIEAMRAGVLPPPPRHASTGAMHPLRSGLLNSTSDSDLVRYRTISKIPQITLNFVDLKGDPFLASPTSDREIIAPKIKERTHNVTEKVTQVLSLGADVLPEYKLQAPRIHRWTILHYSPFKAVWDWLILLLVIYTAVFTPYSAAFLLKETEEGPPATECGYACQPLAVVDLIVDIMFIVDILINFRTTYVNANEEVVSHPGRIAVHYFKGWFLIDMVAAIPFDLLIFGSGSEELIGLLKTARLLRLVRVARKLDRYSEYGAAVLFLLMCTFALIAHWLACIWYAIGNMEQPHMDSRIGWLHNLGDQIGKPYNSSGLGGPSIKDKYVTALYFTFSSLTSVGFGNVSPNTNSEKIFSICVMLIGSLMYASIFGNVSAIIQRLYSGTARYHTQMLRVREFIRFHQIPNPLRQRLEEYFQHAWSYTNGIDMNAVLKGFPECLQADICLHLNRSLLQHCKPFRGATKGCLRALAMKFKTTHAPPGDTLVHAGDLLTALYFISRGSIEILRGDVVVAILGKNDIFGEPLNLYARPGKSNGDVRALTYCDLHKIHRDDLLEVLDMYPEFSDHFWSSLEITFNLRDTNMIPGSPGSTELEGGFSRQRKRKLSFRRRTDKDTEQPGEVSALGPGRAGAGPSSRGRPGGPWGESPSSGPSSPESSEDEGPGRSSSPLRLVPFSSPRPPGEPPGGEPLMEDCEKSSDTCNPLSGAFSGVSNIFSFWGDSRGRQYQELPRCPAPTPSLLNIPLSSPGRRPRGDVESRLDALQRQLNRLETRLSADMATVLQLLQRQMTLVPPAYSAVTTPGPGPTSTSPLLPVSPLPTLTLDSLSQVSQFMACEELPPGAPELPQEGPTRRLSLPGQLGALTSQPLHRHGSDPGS
# Assay overview: Eurofins lead profiling screen (radioligand binding)

| Mol smiles | inhibition at 10 µM, % |
| --- | --- |
| O=C(NCc1ccc(OC(F)(F)F)cc1F)c1ccc2ncnn2c1 | 39 |

* * *

# Assay overview: ChromatoLogD
# Assay type: physicochemical
# From the text: 1 TREK-1 Inhibitory Activity and Lipophilicity of Analogues 10 | column: ChromatoLogD

| Molecule | chromatographic logD |
| --- | --- |
| Cc1cc(OCc2ccccc2)ccc1NC(=O)c1cc(NC(=O)OC(C)(C)C)ccc1Cl [Compound 6] | 4.9 |
| Cc1nc(OCc2ccccc2)cnc1NC(=O)c1cc(NC(=O)OC(C)(C)C)ccc1Cl [Compound 10c] | 4.8 |
| Cc1nc(OCc2ccccc2)ccc1NC(=O)c1cc(NC(=O)OC(C)(C)C)ccc1Cl [Compound 10b] | 5 |
| Cc1cc(OCc2ccccc2)cnc1NC(=O)c1cc(NC(=O)OC(C)(C)C)ccc1Cl [Compound 10a] | 4.4 |

* * *

Reported fraction unbound at 6 h, 5 µM values follow for various compounds
# Assay overview: Plasma protein binding (human)
# Format: in vitro ADME
# Conditions used: pH 7.4, read-out: PPB human (converted)

| Compound | Value qualifier | fraction unbound at 6 h, 5 µM |
| --- | --- | --- |
| Cc1cc(C#Cc2ccccc2)cnc1NC(=O)c1cc(NC(=O)OC(C)(C)C)ccc1Cl [Compound 11] | = | 0.005 |
| Cc1cc(C#Cc2ccc(F)cc2)cnc1NC(=O)c1cc(NC(=O)OC(C)(C)C)ccc1Cl [Compound 14c] | = | 0.006 |
| CC(C)(C)OC(=O)Nc1ccc(Cl)c(C(=O)Nc2ncc(C#Cc3ccccc3)cc2F)c1 [Compound 13a] | = | 0.002 |
| Cc1cc(C#Cc2cccc(F)c2)cnc1NC(=O)c1cc(NC(=O)OC(C)(C)C)ccc1Cl [Compound 14b] | < | 0.001 |

* * *

# Assay overview: Plasma protein binding (mouse)
# Assay type: in vitro ADME
# Conditions used: pH 7.4, read-out: PPB mouse (converted)
Reported fraction unbound at 6 h, 5 µM values follow for various compounds
Measured property: fraction unbound at 6 h, 5 µM

| Compound | Value qualifier | Test result |
| --- | --- | --- |
| Cc1cc(C#Cc2ccccc2)cnc1NC(=O)c1cc(NC(=O)OC(C)(C)C)ccc1Cl [Compound 11] | = | 0.013 |
| CC(C)(C)OC(=O)Nc1ccc(Cl)c(C(=O)Nc2ncc(C#Cc3ccccc3)cc2Cl)c1 [Compound 13b] | < | 0.001 |
| Cc1cc(C#Cc2cccc(F)c2)cnc1NC(=O)c1cc(NC(=O)OC(C)(C)C)ccc1Cl [Compound 14b] | < | 0.001 |
| CC(C)(C)OC(=O)Nc1ccc(Cl)c(C(=O)Nc2ncc(C#Cc3ccccc3)cc2F)c1 [Compound 13a] | = | 0.011 |
| Cc1cc(C#Cc2ccc(F)cc2)cnc1NC(=O)c1cc(NC(=O)OC(C)(C)C)ccc1Cl [Compound 14c] | = | 0.016 |

* * *

# Assay overview: Rat IV:PBL PK cassette study / in vivo rat clearance
# Conditions used: male, Sprague-Dawley, plasma, 0.2 mg/kg; rat IV:PBL PK cassette

| Compound | half-life at 24 h |
| --- | --- |
| Cc1cc(C#Cc2ccc(F)cc2)cnc1NC(=O)c1cc(NC(=O)OC(C)(C)C)ccc1Cl [Compound 14c] | 6.78 h |
